Endpoint: pIC50. System: PARP1 enzyme (Homo sapiens (Human)). Items follow.
Sequence (P09874 whole entry): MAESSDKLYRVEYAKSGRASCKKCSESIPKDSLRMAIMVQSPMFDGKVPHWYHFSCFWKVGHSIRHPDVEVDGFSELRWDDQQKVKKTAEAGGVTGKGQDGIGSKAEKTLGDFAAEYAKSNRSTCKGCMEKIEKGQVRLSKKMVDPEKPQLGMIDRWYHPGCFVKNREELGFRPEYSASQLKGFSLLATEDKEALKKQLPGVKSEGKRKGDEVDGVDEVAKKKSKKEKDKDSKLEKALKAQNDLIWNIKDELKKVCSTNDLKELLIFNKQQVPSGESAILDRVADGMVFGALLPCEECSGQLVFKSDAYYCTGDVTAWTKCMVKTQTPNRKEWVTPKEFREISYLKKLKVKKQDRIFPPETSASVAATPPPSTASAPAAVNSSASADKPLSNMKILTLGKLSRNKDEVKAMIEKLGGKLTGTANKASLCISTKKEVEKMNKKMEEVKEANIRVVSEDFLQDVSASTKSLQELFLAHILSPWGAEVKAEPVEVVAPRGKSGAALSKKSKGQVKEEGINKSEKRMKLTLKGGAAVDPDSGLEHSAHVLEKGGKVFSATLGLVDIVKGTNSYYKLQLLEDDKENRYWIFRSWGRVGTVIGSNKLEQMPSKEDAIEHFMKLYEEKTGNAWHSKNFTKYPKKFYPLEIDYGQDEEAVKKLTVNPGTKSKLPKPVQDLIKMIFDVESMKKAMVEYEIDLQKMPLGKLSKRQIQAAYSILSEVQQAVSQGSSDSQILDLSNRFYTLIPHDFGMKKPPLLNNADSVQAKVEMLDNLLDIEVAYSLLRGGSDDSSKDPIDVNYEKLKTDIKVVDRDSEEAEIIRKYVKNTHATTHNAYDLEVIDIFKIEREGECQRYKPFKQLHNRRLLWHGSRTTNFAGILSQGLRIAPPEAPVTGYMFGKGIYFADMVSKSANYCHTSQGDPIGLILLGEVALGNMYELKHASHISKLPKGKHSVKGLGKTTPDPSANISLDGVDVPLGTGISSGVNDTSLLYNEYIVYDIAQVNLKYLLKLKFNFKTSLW
pIC50: −log10 of the molar value.

COMPOUND: CC1Nc2cc(F)cc3c(=O)[nH]nc(c23)C1C1CCCN(C)C1 (centres unmarked)
pIC50: 6.61
//
COMPOUND: Cn1ncnc1[C@H]1c2n[nH]c(=O)c3cc(F)cc(c23)N[C@@H]1C1CCN(C2CCC(F)(F)CC2)CC1 [Compound 0266B]
pIC50: 5.24
//
COMPOUND: N#Cc1ccc([C@@H]2c3n[nH]c(=O)c4cc(F)cc(c34)N[C@H]2C2CCC(F)(F)CC2)cc1F [Compound 0214B]
pIC50: 7.70
//
COMPOUND: O=c1[nH]nc2c3c(cc(F)cc13)N[C@@H](C1(F)CC1)[C@@H]2c1ccc(Cl)cc1F [Compound 0255A]
pIC50: 8.40
//
COMPOUND: N#Cc1ccc([C@H]2c3n[nH]c(=O)c4cc(F)cc(c34)N[C@@H]2C2CCC(F)(F)CC2)cc1F [Compound 0214A]
pIC50: 6.97
//
COMPOUND: O=c1[nH]nc2c3c(cc(F)cc13)N[C@@H](c1c(F)cc(F)cc1F)[C@@H]2C1CCNCC1 [Compound 0098B]
pIC50: 7.52
//
COMPOUND: CC[C@H]1Nc2cc(F)cc3c(=O)[nH]nc(c23)[C@@H]1c1ccccc1Cl [Compound 0206B]
pIC50: 8.22
//
COMPOUND: O=c1[nH]nc2c3c(cc(F)cc13)N[C@H](C1CC1)[C@H]2c1ccccc1Cl [Compound 0207B]
pIC50: 8.22
//
COMPOUND: O=c1[nH]nc2c3c(cc(F)cc13)NC[C@@H]2c1ccc(Cl)c(F)c1 [Compound 0188B]
pIC50: 7.00
//
COMPOUND: O=c1[nH]nc2c3c(cc(F)cc13)N[C@H](C1(F)CC1)[C@H]2c1ccccc1Cl [Compound 0260A]
pIC50: 8.70
//
COMPOUND: O=c1[nH]nc2c3c(cc(F)cc13)N[C@H](CF)[C@H]2c1ccc(Cl)cc1F [Compound 0252B]
pIC50: 8.10
//
COMPOUND: O=c1[nH]nc2c3c(cc(F)cc13)N[C@@H](C1CCN(C3CCC(F)(F)CC3)CC1)[C@@H]2c1ccccc1Cl [Compound 0261B]
pIC50: 6.52
//
COMPOUND: C[C@H]1Nc2cc(F)cc3c(=O)[nH]nc(c23)[C@@H]1c1ccc(Cl)cc1F [Compound 0196A]
pIC50: 8.05
//
COMPOUND: CC(C)(C)C[C@H]1Nc2cc(F)cc3c(=O)[nH]nc(c23)[C@@H]1c1c(F)cc(F)cc1F [Compound 0219A]
pIC50: 6.29
//
COMPOUND: O=c1[nH]nc2c3c(cc(F)cc13)N[C@H]([C@H]1CCOC1)[C@H]2c1ccc(F)cc1F [Compound 0115A]
pIC50: 8.00
//
COMPOUND: O=c1[nH]nc2c3c(cc(F)cc13)NC[C@H]2c1ccc(F)cc1F [Compound 0114A]
pIC50: 6.57
//
COMPOUND: CN1CCC[C@H]([C@H]2CNc3cc(F)cc4c(=O)[nH]nc2c34)C1 [Compound 0191-8]
pIC50: 7.34
//
COMPOUND: C[C@H]1Nc2cc(F)cc3c(=O)[nH]nc(c23)[C@@H]1[C@H]1CCCCN1C [Compound 0199A]
pIC50: 7.19
//
COMPOUND: O=c1[nH]nc2c3c(cc(F)cc13)N[C@@H](C1CCN(C3CCC(F)(F)CC3)CC1)[C@@H]2c1ccc(F)cc1F [Compound 0271B]
pIC50: 8.15
//
COMPOUND: C[C@H]1Nc2cc(F)cc3c(=O)[nH]nc(c23)[C@@H]1c1ccc(C#N)c(F)c1 [Compound 0193A]
pIC50: 7.62
